Biological target: sGC α1/β1 heterodimer (Homo sapiens, UniProt Q02108+Q02153)
Construct: expressed in transfected cells
Sequence (Q02108 whole entry): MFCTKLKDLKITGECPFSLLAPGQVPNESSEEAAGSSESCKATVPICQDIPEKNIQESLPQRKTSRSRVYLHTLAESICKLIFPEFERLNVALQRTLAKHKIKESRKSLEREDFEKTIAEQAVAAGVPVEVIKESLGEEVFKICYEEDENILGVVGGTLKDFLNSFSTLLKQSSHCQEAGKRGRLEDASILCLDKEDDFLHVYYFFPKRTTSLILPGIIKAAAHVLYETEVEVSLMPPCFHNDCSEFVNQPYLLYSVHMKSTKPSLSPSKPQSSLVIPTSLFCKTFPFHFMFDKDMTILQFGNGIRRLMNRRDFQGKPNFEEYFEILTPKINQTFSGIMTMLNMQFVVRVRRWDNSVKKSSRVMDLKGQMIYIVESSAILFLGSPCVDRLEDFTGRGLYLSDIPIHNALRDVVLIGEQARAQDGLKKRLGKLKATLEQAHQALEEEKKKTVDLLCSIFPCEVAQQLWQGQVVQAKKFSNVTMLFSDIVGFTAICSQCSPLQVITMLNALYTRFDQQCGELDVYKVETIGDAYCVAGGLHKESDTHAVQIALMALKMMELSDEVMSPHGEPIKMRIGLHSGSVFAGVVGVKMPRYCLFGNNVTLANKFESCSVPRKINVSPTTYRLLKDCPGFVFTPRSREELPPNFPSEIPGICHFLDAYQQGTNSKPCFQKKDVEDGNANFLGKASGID
Sequence (Q02153 whole entry): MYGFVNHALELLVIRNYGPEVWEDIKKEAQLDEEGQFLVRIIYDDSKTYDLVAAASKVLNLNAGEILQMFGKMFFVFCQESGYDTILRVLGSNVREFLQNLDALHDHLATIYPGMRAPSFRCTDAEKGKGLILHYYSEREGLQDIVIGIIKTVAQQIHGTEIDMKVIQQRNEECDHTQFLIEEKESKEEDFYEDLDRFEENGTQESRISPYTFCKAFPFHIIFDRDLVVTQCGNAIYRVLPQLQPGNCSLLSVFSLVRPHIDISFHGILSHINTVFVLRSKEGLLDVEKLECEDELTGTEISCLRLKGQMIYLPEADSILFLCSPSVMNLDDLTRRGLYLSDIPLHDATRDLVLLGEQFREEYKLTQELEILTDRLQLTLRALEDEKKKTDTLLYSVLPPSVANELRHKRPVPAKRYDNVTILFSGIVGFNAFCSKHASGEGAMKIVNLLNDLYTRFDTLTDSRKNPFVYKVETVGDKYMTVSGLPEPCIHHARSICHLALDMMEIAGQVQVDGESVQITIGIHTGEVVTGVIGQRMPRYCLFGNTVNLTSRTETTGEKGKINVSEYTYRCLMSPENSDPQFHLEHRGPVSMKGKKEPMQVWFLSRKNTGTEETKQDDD
Experiment: Cell-Based sGC Functional Assay (CASA Assay)
Conditions: CHO-K1/sGC cells; cGMP as percentage of maximum cGMP production of Compound A (=100% activation); read-out: % ACT (percent activation)
Measured parameter: Emax (%)
Give the value, in units of %, as a plain number.

Query string: Check the records and state Emax for Cn1ccc2c(-c3nc(N)c4c(n3)NC(=O)C4(C)C)nc(CCC(F)(F)C(F)(F)F)nc21
Result string: 76

Query string: Check the records and state Emax for Cn1ncc2c(-c3nc(N)c4c(n3)NC(=O)C4(C)c3ccc(F)cc3)nc(Cc3cccc(F)c3F)nc21 (single isomer, unassigned)
Result string: 127

Query string: Check the records and state Emax for CC1(c2ccccc2)C(=O)Nc2nc(-c3nc(CCC(F)(F)C(F)(F)F)nc4[nH]ccc34)nc(N)c21 (single isomer, unassigned)
Result string: 102

Query string: Check the records and state Emax for [2H]C([2H])([2H])n1nnc2c(-c3nc(N)c4c(n3)NC(=O)C4(C)c3ccc(F)cc3)nc(CCC(F)(F)C(F)(F)F)nc21 (single isomer, unassigned)
Result string: 114

Query string: Check the records and state Emax for [2H]C([2H])([2H])n1ccc2c(-c3nc(N)c4c(n3)NC(=O)C4(C)c3ccccc3)nc(CCC(F)(F)C(F)(F)F)nc21 (single isomer, unassigned)
Result string: 106

Query string: Check the records and state Emax for [2H]C([2H])([2H])n1ncc2c(-c3nc(N)c4c(n3)NC(=O)C4(CC)C(=O)NC3CC3)nc(CCC(F)(F)C(F)(F)F)nc21 (single isomer, unassigned)
Result string: 122

====

Target: sGC α1/β1 heterodimer (Homo sapiens, UniProt Q02108+Q02153)
Assay: Cell-Based sGC Functional Assay (CASA Assay)
Conditions: CHO-K1/sGC cells, intracellular cGMP by HTRF, 1 hr at 37° C.; IP from 4P fit; presence or absence of 1 μM DETA-NO not given
Measured parameter: pEC50
The value called pEC50 is obtained by taking minus log10 of the concentration in mol/L.

Query string: Check the records and state pEC50 for [2H]C([2H])([2H])n1ncc2c(-c3nc(N)c4c(n3)NC(=O)C4(C)C(=O)Nc3cnn(C)c3)nc(CCC(F)(F)C(F)(F)F)nc21 (single isomer, unassigned)
Result string: 6.95

Query string: Check the records and state pEC50 for Cn1ncc2c(-c3nc(N)c4c(n3)NC(=O)C4(C)c3ccccc3)nc(CCC(F)(F)F)nc21 (single isomer, unassigned)
Result string: 6.89

Query string: Check the records and state pEC50 for CCn1ncc2c(-c3nc(N)c4c(n3)NC(=O)C4(C(=O)NC3CC3)C3CC3)nc(CCC(F)(F)C(F)(F)F)nc21 (single isomer, unassigned)
Result string: 6.19

Query string: Check the records and state pEC50 for [2H]C([2H])([2H])n1nnc2c(-c3nc(N)c4c(n3)NC(=O)C4(c3ccc(F)cc3)C3CC3)nc(CCC(F)(F)C(F)(F)F)nc21 (single isomer, unassigned)
Result string: 5.94

Query string: Check the records and state pEC50 for [2H]C([2H])([2H])n1nnc2c(-c3nc(N)c4c(n3)NC(=O)C4(C)c3ccc(F)cc3)nc(CCC(F)(F)C(F)(F)F)nc21 (single isomer, unassigned)
Result string: 5.97

====

Target: sGC α1/β1 heterodimer (Homo sapiens, UniProt Q02108+Q02153)
Assay: Cell-Based sGC Functional Assay (CASA Assay)
Details: CHO-K1/sGC cells, intracellular cGMP by HTRF, 1 hr at 37° C.; IP from 4P fit; presence or absence of 1 μM DETA-NO not given
Measured parameter: pEC50
The value called pEC50 is obtained by taking minus log10 of the concentration in mol/L.

Query string: Check the records and state pEC50 for Cn1ncc2c(-c3nc(N)c4c(n3)NC(=O)C4(C)c3ccc(F)cc3)nc(CCC(F)(F)F)nc21 (single isomer, unassigned) [Example 11]
Result string: 6.84

Query string: Check the records and state pEC50 for Cn1ncc2c(-c3nc(N)c4c(n3)NC(=O)C4(C)N)nc(CCC(F)(F)C(F)(F)F)nc21 (single isomer, unassigned) [Example 50]
Result string: 5.91

Query string: Check the records and state pEC50 for Cn1ncc2c(-c3nc(N)c4c(n3)NC(=O)C4(C)NC(=O)c3ccccn3)nc(CCC(F)(F)C(F)(F)F)nc21 (stereo not shown) [Example 51]
Result string: 6.13

Query string: Check the records and state pEC50 for Cn1ncc2c(-c3nc(N)c4c(n3)NC(=O)C4(C)C(=O)NC3CC3)nc(Cc3cccc(F)c3F)nc21 (single isomer, unassigned) [Example 40]
Result string: 7.26

Query string: Check the records and state pEC50 for [2H]C([2H])([2H])n1nnc2c(-c3nc(N)c4c(n3)NC(=O)C4(C)c3ccccc3)nc(CCC(F)(F)C(F)(F)F)nc21 (single isomer, unassigned) [Example 68]
Result string: 6.39

Query string: Check the records and state pEC50 for C#CC1(C2CC2)C(=O)Nc2nc(-c3nc(CCC(F)(F)C(F)(F)F)nc4c3cnn4C)nc(N)c21 (single isomer, unassigned) [Example 24]
Result string: 6.98

Query string: Check the records and state pEC50 for [2H]C([2H])([2H])n1nnc2c(-c3nc(N)c4c(n3)NC(=O)C4(C)c3ccc(OC)cc3)nc(CCC(F)(F)C(F)(F)F)nc21 (single isomer, unassigned) [Example 71]
Result string: 6.23

Query string: Check the records and state pEC50 for [2H]C([2H])([2H])n1ncc2c(-c3nc(N)c4c(n3)NC(=O)C4(C)c3ccc(O)cc3)nc(CCC(F)(F)C(F)(F)F)nc21 (single isomer, unassigned) [Example 43]
Result string: 6.68

Query string: Check the records and state pEC50 for [2H]C([2H])([2H])n1ncc2c(-c3nc(N)c4c(n3)NC(=O)C4(CC)C(N)=O)nc(CCC(F)(F)C(F)(F)F)nc21 (single isomer, unassigned) [Example 36]
Result string: 6.06

Query string: Check the records and state pEC50 for C#CC1(C)C(=O)Nc2nc(-c3nc(CCC(F)(F)C(F)(F)F)nc4c3cnn4C)nc(N)c21 (single isomer, unassigned) [Example 21]
Result string: 7.04

Query string: Check the records and state pEC50 for Cn1ncc2c(-c3nc(N)c4c(n3)NC(=O)C4(C)c3ccc(Br)cc3)nc(CCC(F)(F)C(F)(F)F)nc21 (single isomer, unassigned) [Example 10]
Result string: 6.71

Query string: Check the records and state pEC50 for [2H]C([2H])([2H])n1ncc2c(-c3nc(N)c4c(n3)NC(=O)C4(C)c3ccccc3)nc(CCC(F)(F)C(F)(F)F)nc21 (single isomer, unassigned) [Example 13]
Result string: 7.40

Query string: Check the records and state pEC50 for Cn1ncc2c(-c3nc(N)c4c(n3)NC(=O)C4(C)c3ccc(F)cc3)nc(CCC(F)(F)C(F)(F)F)nc21 (single isomer, unassigned) [Example 9]
Result string: 7.34

Query string: Check the records and state pEC50 for [2H]C([2H])([2H])n1ncc2c(-c3nc(N)c4c(n3)NC(=O)C4(CCCC)C3CC3)nc(CCC(F)(F)C(F)(F)F)nc21 (single isomer, unassigned) [Example 25]
Result string: 7.31

Query string: Check the records and state pEC50 for [2H]C([2H])([2H])n1ncc2c(-c3nc(N)c4c(n3)NC(=O)C4(CC)C(=O)NC3CC3)nc(CCC(F)(F)C(F)(F)F)nc21 (single isomer, unassigned) [Example 34]
Result string: 6.84

Query string: Check the records and state pEC50 for CCOC(=O)C1(C2CC2)C(=O)Nc2nc(-c3nc(CCCC(F)(F)F)nc4c3cnn4C)nc(N)c21 (single isomer, unassigned) [Example 27]
Result string: 6.22

Query string: Check the records and state pEC50 for Cn1ncc2c(-c3nc(N)c4c(n3)NC(=O)C4(C)c3ccccc3)nc(CCCC(F)(F)F)nc21 (single isomer, unassigned) [Example 3]
Result string: 6.92

Query string: Check the records and state pEC50 for [2H]C([2H])([2H])n1nc(C2CC2)c2c(-c3nc(N)c4c(n3)NC(=O)C4(C)c3ccc(F)cc3)nc(CCC(F)(F)C(F)(F)F)nc21 (stereo not shown) [Example 59]
Result string: 6.52

Query string: Check the records and state pEC50 for Cn1ccc2c(-c3nc(N)c4c(n3)NC(=O)C4(C)c3ccccc3)nc(CCC(F)(F)C(F)(F)F)nc21 (single isomer, unassigned) [Example 62]
Result string: 7.72

Query string: Check the records and state pEC50 for [2H]C([2H])([2H])n1ncc2c(-c3nc(N)c4c(n3)NC(=O)C4(C)C3CC3)nc(CCC(F)(F)C(F)(F)F)nc21 (single isomer, unassigned) [Example 17]
Result string: 6.54

Query string: Check the records and state pEC50 for Cn1ncc2c(-c3nc(N)c4c(n3)NC(=O)C4(C)C(N)=O)nc(CCC(F)(F)C(F)(F)F)nc21 (single isomer, unassigned) [Example 30]
Result string: 6.61

Query string: Check the records and state pEC50 for [2H]C([2H])([2H])n1ncc2c(-c3nc(O)c4c(n3)NC(=O)C4(C)c3ccc(F)cc3)nc(CCC(F)(F)C(F)(F)F)nc21 (stereo not shown) [Example 48]
Result string: 6.18
